Reference for the values: BigSolDB 2.1

Conditions: in sec-butanol, 313.15 K
ENDPOINT: solubility (mole fraction)
Answers are plain numbers.

Any idea what solubility (mole fraction) was measured for CC(CO)(CO)C(=O)O ?
0.0165

* * *

Settings: in n-propanol, 308.15 K
ENDPOINT: solubility (mole fraction)
Numbers only.

Any idea what solubility (mole fraction) was measured for CC(CO)(CO)C(=O)O ?
0.0136

* * *

Details: in methyl acetate, 298.15 K
ENDPOINT: solubility (mole fraction)
Answers are plain numbers.

Any idea what solubility (mole fraction) was measured for CC(CO)(CO)C(=O)O ?
0.00094

* * *

Settings: in ethyl acetate, 313.15 K
ENDPOINT: solubility (mole fraction)
Answers are plain numbers.

Any idea what solubility (mole fraction) was measured for CC(CO)(CO)C(=O)O ?
0.00131

* * *

Settings: in n-butanol, 323.15 K
ENDPOINT: solubility (mole fraction)
Answers are plain numbers.

Any idea what solubility (mole fraction) was measured for CC(CO)(CO)C(=O)O ?
0.0214

* * *

Conditions: in acetone, 293.15 K
ENDPOINT: solubility (mole fraction)
Give bare numbers.

Any idea what solubility (mole fraction) was measured for CC(CO)(CO)C(=O)O ?
0.00292

* * *

Conditions: in methanol, 323.15 K
ENDPOINT: solubility (mole fraction)
Give bare numbers.

Any idea what solubility (mole fraction) was measured for CC(CO)(CO)C(=O)O ?
0.0566

* * *

Conditions: in ethyl acetate, 323.15 K
ENDPOINT: solubility (mole fraction)
One number for each entry.

Any idea what solubility (mole fraction) was measured for CC(CO)(CO)C(=O)O ?
0.00202

* * *

Settings: in n-butyl acetate, 313.15 K
ENDPOINT: solubility (mole fraction)

Any idea what solubility (mole fraction) was measured for CC(CO)(CO)C(=O)O ?
0.00075

* * *

Settings: in DMF, 298.15 K
ENDPOINT: solubility (mole fraction)
Give bare numbers.

Any idea what solubility (mole fraction) was measured for CC(CO)(CO)C(=O)O ?
0.177

* * *

Conditions: in n-butanol, 288.15 K
ENDPOINT: solubility (mole fraction)
Numbers only.

Any idea what solubility (mole fraction) was measured for CC(CO)(CO)C(=O)O ?
0.00666

* * *

Details: in n-propanol, 323.15 K
ENDPOINT: solubility (mole fraction)

Any idea what solubility (mole fraction) was measured for CC(CO)(CO)C(=O)O ?
0.0226

* * *

Conditions: in isopropanol, 288.15 K
ENDPOINT: solubility (mole fraction)
Give bare numbers.

Any idea what solubility (mole fraction) was measured for CC(CO)(CO)C(=O)O ?
0.00755

* * *

Settings: in methanol, 293.15 K
ENDPOINT: solubility (mole fraction)

Any idea what solubility (mole fraction) was measured for CC(CO)(CO)C(=O)O ?
0.0254

* * *

Details: in acetone, 328.15 K
ENDPOINT: solubility (mole fraction)

Any idea what solubility (mole fraction) was measured for CC(CO)(CO)C(=O)O ?
0.00853

* * *

Conditions: in isopropanol, 298.15 K
ENDPOINT: solubility (mole fraction)
Numbers only.

Any idea what solubility (mole fraction) was measured for CC(CO)(CO)C(=O)O ?
0.0114

* * *

Conditions: in methyl acetate, 308.15 K
ENDPOINT: solubility (mole fraction)

Any idea what solubility (mole fraction) was measured for CC(CO)(CO)C(=O)O ?
0.00149

* * *

Settings: in water, 328.15 K
ENDPOINT: solubility (mole fraction)
Answers are plain numbers.

Any idea what solubility (mole fraction) was measured for CC(CO)(CO)C(=O)O ?
0.0414
